For each entry below, report its pIC50 value.
# targetSystem: heparanase (Homo sapiens)
# assayProtocol: AGA*IA assay: heparanase-catalyzed fondaparinux cleavage, colorimetric (WST-1)
# Assay type: biochemical
# conditionInfo: Table 2; classes as in Table 1; read-out: AGA*IA assay
pIC50: −log10 of the molar value.

Please review the following examples before continuing.
{"columns": ["compound", "pIC50"],
 "data": [
  ["Cn1cc(NC(=O)c2cc(NC(=O)Nc3cc(C(=O)Nc4cc(C(=O)Nc5cccc(CC(=O)NCC(=O)O)c5)n(C)c4)cc(C(F)(F)F)c3)cc(C(F)(F)F)c2)cc1C(=O)Nc1cccc(CC(=O)NCC(=O)O)c1 [Compound 13c]", "6.31 to 7.30"],
  ["Cn1cc(NC(=O)c2cccc(NC(=O)Nc3cccc(C(=O)Nc4cc(C(=O)Nc5cccc(CC(=O)NCC(=O)O)c5)n(C)c4)c3)c2)cc1C(=O)Nc1cccc(CC(=O)NCC(=O)O)c1 [Compound 12b]", "6.31 to 7.30"]
]}

Would you kindly look at the next entry?
Qu. # return pIC50 of Cn1cc(NC(=O)c2ccc(Oc3ccc(C(=O)Nc4cc(C(=O)Nc5cccc(CC(=O)N[C@@H](Cc6ccccc6)C(=O)O)c5)n(C)c4)cc3)cc2)cc1C(=O)Nc1cccc(CC(=O)N[C@@H](Cc2ccccc2)C(=O)O)c1 [Compound 36e] (system: heparanase (Homo sapiens))
Ans. 6.31 to 7.30

* * *

# targetSystem: heparanase (Homo sapiens, UniProt Q9Y251)
# Sequence (Q9Y251 158-543 limits assumed): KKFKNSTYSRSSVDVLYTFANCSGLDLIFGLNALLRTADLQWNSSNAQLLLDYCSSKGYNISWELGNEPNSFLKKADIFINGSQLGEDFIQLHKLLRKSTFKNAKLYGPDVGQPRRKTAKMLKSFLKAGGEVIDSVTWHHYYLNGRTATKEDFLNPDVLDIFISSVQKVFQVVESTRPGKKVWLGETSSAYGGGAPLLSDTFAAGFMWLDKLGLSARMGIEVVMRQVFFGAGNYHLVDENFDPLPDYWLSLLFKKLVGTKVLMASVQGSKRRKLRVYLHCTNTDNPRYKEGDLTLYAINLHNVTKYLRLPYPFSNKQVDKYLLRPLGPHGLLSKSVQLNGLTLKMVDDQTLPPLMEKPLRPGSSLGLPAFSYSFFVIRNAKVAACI
# Sequence (Q9Y251 36-109 limits assumed): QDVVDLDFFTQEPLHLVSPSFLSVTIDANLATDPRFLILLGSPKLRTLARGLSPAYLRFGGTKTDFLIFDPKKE
# assayProtocol: AGA*IA assay: heparanase-catalyzed fondaparinux cleavage, colorimetric (WST-1)
# Assay type: biochemical
# conditionInfo: Table 1; range activity classes, AGA*IA test on Fondaparinux; read-out: AGAIA assay IC50
pIC50: −log10 of the molar value. Counter-ions that a name gives are not always drawn.
propertyMeasured: pIC50

{"columns": ["compound", "propertyMeasured", "result"],
 "data": [
  ["Cn1cc(NC(=O)c2cccc(NC(=O)Nc3cccc(C(=O)Nc4cc(C(=O)Nc5cccc(CC(=O)O)c5)n(C)c4)c3)c2)cc1C(=O)Nc1cccc(CC(=O)O)c1 [Compound 12h]", "pIC50", "4.70 to 6.00"]
]}

Give pIC50 for each listed item.
1. CC(NC(=O)Cc1cccc(NC(=O)c2cc(NC(=O)c3cccc(NC(=O)Nc4cccc(C(=O)Nc5cc(C(=O)Nc6cccc(CC(=O)NC(C)C(=O)O)c6)n(C)c5)c4)c3)cn2C)c1)C(=O)O (centres unmarked) [Compound 12d]
2. Cn1cc(NC(=O)c2cccc(NC(=O)Nc3cccc(C(=O)Nc4cc(C(=O)Nc5cccc(CC(=O)NCC(=O)O)c5)n(C)c4)c3)c2)cc1C(=O)Nc1cccc(CC(=O)NCC(=O)O)c1 [Compound 12b]
3. Cn1cc(NC(=O)Nc2cc(C(=O)Nc3cc(C(=O)Nc4cccc(CC(=O)N[C@@H](CCC(=O)O)C(=O)O)c4)n(C)c3)n(C)c2)cc1C(=O)Nc1cc(C(=O)Nc2cccc(CC(=O)N[C@@H](CCC(=O)O)C(=O)O)c2)n(C)c1 [Compound 17f]
4. Cn1cc(NC(=O)c2ccc(Oc3ccc(C(=O)Nc4cc(C(=O)Nc5cccc(CC(=O)N[C@@H](CCC(=O)O)C(=O)O)c5)n(C)c4)cc3)cc2)cc1C(=O)Nc1cccc(CC(=O)N[C@@H](CCC(=O)O)C(=O)O)c1 [Compound 36f]
5. Cn1cc(NC(=O)c2ccc(Oc3ccc(C(=O)Nc4cc(C(=O)Nc5cccc(CC(=O)N[C@@H](Cc6ccccc6)C(=O)O)c5)n(C)c4)cc3)cc2)cc1C(=O)Nc1cccc(CC(=O)N[C@@H](Cc2ccccc2)C(=O)O)c1 [Compound 36e]
6. CC(C)C[C@H](NC(=O)CNC(=O)Cc1cccc(NC(=O)c2cc(NC(=O)c3cc(NC(=O)Nc4cc(C(=O)Nc5cc(C(=O)Nc6cccc(CC(=O)NCC(=O)N[C@@H](CC(C)C)B(O)O)c6)n(C)c5)n(C)c4)cn3C)cn2C)c1)B(O)O
7. Cn1cc(NC(=O)c2cccc(NC(=O)Nc3cccc(C(=O)Nc4cc(C(=O)Nc5cccc(CC(=O)N[C@@H](CCCCN)C(=O)O)c5)n(C)c4)c3)c2)cc1C(=O)Nc1cccc(CC(=O)N[C@@H](CCCCN)C(=O)O)c1 [Compound 12c, trifluoroacetate salt]

Ans.
1: 4.70 to 6.00; 2: 6.31 to 7.30; 3: 4.70 to 6.00; 4: 4.70 to 6.00; 5: 6.31 to 7.30; 6: 4.70 to 6.00; 7: 4.70 to 6.00

* * *

# System: U87MG (human glioblastoma astrocytoma)
# assayProtocol: Matrigel cell invasion assay
# Type: cell-based
# conditionInfo: Homo sapiens, U-87 MG, read-out: Invasion Assay Inhibition U87MG
propertyMeasured: inhibition at 2.5 µM

Please review the following examples before continuing.
{"columns": ["compound", "propertyMeasured", "result"],
 "data": [
  ["Cn1cc(NC(=O)Nc2cc(C(=O)Nc3cc(C(=O)Nc4cccc(CC(=O)N[C@@H](Cc5ccccc5)C(=O)O)c4)n(C)c3)n(C)c2)cc1C(=O)Nc1cc(C(=O)Nc2cccc(CC(=O)N[C@@H](Cc3ccccc3)C(=O)O)c2)n(C)c1 [Compound 17e]", "inhibition at 2.5 µM", "< 50%"],
  ["Cn1cc(NC(=O)Nc2cc(C(=O)Nc3cc(C(=O)Nc4cccc(CC(=O)NCC(=O)O)c4)n(C)c3)n(C)c2)cc1C(=O)Nc1cc(C(=O)Nc2cccc(CC(=O)NCC(=O)O)c2)n(C)c1", "inhibition at 2.5 µM", "< 50%"],
  ["Cn1cc(NC(=O)c2ccc(Oc3ccc(C(=O)Nc4cc(C(=O)Nc5cccc(CC(=O)N[C@@H](Cc6ccccc6)C(=O)O)c5)n(C)c4)cc3)cc2)cc1C(=O)Nc1cccc(CC(=O)N[C@@H](Cc2ccccc2)C(=O)O)c1 [Compound 36e]", "inhibition at 2.5 µM", "50 to 90%"],
  ["Cn1cc(NC(=O)c2cc(NC(=O)Nc3cc(C(=O)Nc4cc(C(=O)Nc5cccc(CC(=O)NCC(=O)O)c5)n(C)c4)cc(C(F)(F)F)c3)cc(C(F)(F)F)c2)cc1C(=O)Nc1cccc(CC(=O)NCC(=O)O)c1 [Compound 13c]", "inhibition at 2.5 µM", "< 50%"]
]}

Would you kindly look at the next entry?
Qu. Fill in reported inhibition at 2.5 µM for this entry: Cn1cc(NC(=O)c2cccc(NC(=O)Nc3cccc(C(=O)Nc4cc(C(=O)Nc5cccc(CC(=O)NCC(=O)O)c5)n(C)c4)c3)c2)cc1C(=O)Nc1cccc(CC(=O)NCC(=O)O)c1 [Compound 12b]
Ans. < 50%

* * *

# targetSystem: heparanase (Homo sapiens, UniProt Q9Y251)
# assayProtocol: AGA*IA assay: heparanase-catalyzed fondaparinux cleavage, colorimetric (WST-1)
# Format: biochemical
# conditionInfo: Table 1; range activity classes, AGA*IA test on Fondaparinux; read-out: AGAIA assay IC50
pIC50: −log10 of the molar value.
propertyMeasured: pIC50

Please review the following examples before continuing.
{"columns": ["compound", "propertyMeasured", "result"],
 "data": [
  ["Cn1cc(NC(=O)c2cccc(NC(=O)Nc3cccc(C(=O)Nc4cc(C(=O)Nc5ccc(CC(=O)O)cc5)n(C)c4)c3)c2)cc1C(=O)Nc1ccc(CC(=O)O)cc1 [Compound 12j]", "pIC50", "4.70 to 6.00"],
  ["Cn1cc(NC(=O)c2cccc(NC(=O)Nc3cccc(C(=O)Nc4cc(C(=O)Nc5cccc(CC(=O)NCC(=O)NCC(=O)O)c5)n(C)c4)c3)c2)cc1C(=O)Nc1cccc(CC(=O)NCC(=O)NCC(=O)O)c1 [Compound 13b]", "pIC50", "4.70 to 6.00"]
]}

Qu. Fill in reported pIC50 for this entry: `CC(C)C[C@H](NC(=O)Cc1cccc(NC(=O)c2cc(NC(=O)c3cccc(NC(=O)Nc4cccc(C(=O)Nc5cc(C(=O)Nc6cccc(CC(=O)N[C@@H](CC(C)C)B(O)O)c6)n(C)c5)c4)c3)cn2C)c1)B(O)O`
Ans. 4.70 to 6.00
